ASSAYED_TARGET: T1, hsRosR (Halobacterium salinarum (Halobacterium …, UniProt Q9HSF4 1-116))
T1 sequence: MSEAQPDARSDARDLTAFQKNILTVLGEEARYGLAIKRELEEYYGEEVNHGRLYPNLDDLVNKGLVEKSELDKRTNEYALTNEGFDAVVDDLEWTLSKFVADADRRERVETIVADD
TEST_PROTOCOL: fluorescence anisotropy
REPORTED_ENDPOINT: Kd
A complete answer gives the number and then names the unit.

Qu. Which Kd is listed for S1 (25 bp) (dsDNA) DNA 1: GTGTAAATTGTCTGACATGTTCTTA DNA 2: TAAGAACATGTCAGACAATTTACAC ?
Ans. 169 nM
